Value source: ChEMBL document CHEMBL1201862

Tested on: SK-MEL-2
TEST_DETAILS: NCI tumour cell line growth inhibition, 48 h
The source made the active and inactive calls. Rule as the data show it: active = GI50 up to about 1.1 µM and inactive = higher.
Write down one outcome, taken from y for active, n for inactive

What did this assay record as the result for CCCNC(/C=C/[Si](C)(C)C)CO.CCCNCC(O)/C=C/[Si](C)(C)C (stereo not given) ?
n

What did this assay record as the result for O=c1ccn(CC2(CO)CC(Cc3ccccc3)C2)c(=O)[nH]1 (stereo not given) ?
n

What did this assay record as the result for Cc1cccc(C[C@@]2(SCc3ccccc3)C(C)(C)[C@@H]3CC[C@@]2(C)C3)n1 ?
n

What did this assay record as the result for Cc1cccc(C2ON=C(c3ccccc3)N2C23CC4CC(CC(C4)C2)C3)c1 (stereo not given) ?
n

What did this assay record as the result for C=C1OC(=O)[C@]2([C@@H](/C=C/C)C=CC(=O)[C@H]2O)[C@@H]1O ?
n

What did this assay record as the result for CC1=C(C(=O)OC(C)C)C(c2ccccc2C(F)(F)F)C(C(=O)OC(CO[N+](=O)[O-])CO[N+](=O)[O-])=C(C)N1 (stereo not given) ?
n

What did this assay record as the result for CCOC(=O)C(C)(C)Oc1ccc(Cl)cc1 [CLOFIBRATE] ?
n

What did this assay record as the result for O=C1C=CC(O)C2C1CC13SSC4(CC5C(=O)C=CC(O)C5N4C1=O)C(=O)N23 (stereo not given) ?
y

What did this assay record as the result for CNC(=O)N(CCC#N)CCN(CCN(C(=O)NC)c1ccccc1)C(=O)NC ?
n

What did this assay record as the result for N#Cc1nc(Nc2ccc([N+](=O)[O-])cc2)sc1N ?
n

====

Test system: EKVX
TEST_DETAILS: NCI tumour cell line growth inhibition, 48 h
Activity calls are given as the source filed them. Cut-off read from the data, not from the text of the source: active = GI50 up to about 1.1 µM and inactive = higher.
QUANTITY_MEASURED: GI50

* O=c1c2ccccc2nc2n1CCc1c-2[nH]c2ccc(Br)cc12 | > 100 µM (inactive)
* O=C(Nc1ccc(Cl)cc1)c1cc(S(=O)(=O)Nc2n[nH]c(Nc3ccc4ccccc4c3)n2)c(SSc2cc(Cl)c(C(=O)Nc3ccc(Cl)cc3)cc2S(=O)(=O)Nc2n[nH]c(Nc3ccc4ccccc4c3)n2)cc1Cl | 42.9 µM (inactive)
* N#CC(c1ccc(Cl)cc1)c1cccc(C(C#N)c2ccc(Cl)cc2)n1 (centres undefined) | 25 µM (inactive)
* COc1ccc(C(=O)/C=C/c2ccc(OCC#N)cc2)cc1 | 74.5 µM (inactive)

Dear colleague, could you please provide GI50 for the molecules listed below?
1. c1ccc2c(c1)cc1c3[nH]c4ccccc4c3ccn21
2. O=[N+]([O-])c1ccc2nc3ccc([N+](=O)[O-])cn3c2c1
3. CC1=NC(=Cc2cc(Br)cc(Br)c2)C(=O)N1n1c(-c2ccccc2)nc2ccccc2c1=O
4. CC(C)[Si](OC1=C(C(=O)Nc2ccccc2Cl)CCCCC1)(C(C)C)C(C)C
5. COC1(C2c3ccccc3CCN2C(=O)OC(C)(C)C)C(=O)C(c2ccccc2)=C1N(C)C (centres undefined)

> 10 µM (inactive)
29.4 µM (inactive)
> 100 µM (inactive)
> 100 µM (inactive)
40.6 µM (inactive)

====

Provide the reported GI50 of each item.
Tested on: SF-268
TEST_DETAILS: NCI tumour cell line growth inhibition, 48 h
Active and inactive are the calls of the source. Cut-off read from the data, not from the text of the source: active = GI50 up to about 1.1 µM and inactive = higher.

- COc1ccc2c(ccc3c(COC(=O)NC(C)C)c(COC(=O)NC(C)C)n(C)c32)c1: 5.19 µM (inactive)
- [O-][n+]1ccccc1Sc1nc(Sc2cccc[n+]2[O-])nc(Sc2cccc[n+]2[O-])n1: 2.99 µM (inactive)
- Cc1ccc(N(C(=O)CC(=O)N2N=C(c3ccccc3)C(/N=N/c3ccc([N+](=O)[O-])cc3)C2=O)C(=O)c2ccc(Cl)cc2)cc1 (stereo not drawn): 9.04 µM (inactive)

Dear colleague, could you please provide GI50 for the compounds listed below?
1. Cn1cnnc1SC(F)(F)c1nc2ccccc2o1
2. O=C(NC(c1ccccc1)C(O)C(=O)OCc1ccc2c(c1)C(=O)c1ccccc1C2=O)c1ccccc1 (stereo not drawn)
3. O=C(Nc1nncs1)NS(=O)(=O)n1c(=S)sc2ccccc21

["> 100 µM (inactive)", "17.1 µM (inactive)", "> 100 µM (inactive)"]

Dear colleague, could you please provide GI50 for the compounds listed below?
1. O=C(O)c1ccc(C(=O)O)c(C(=O)Nc2ccc3c(c2)C(=O)c2ccccc2-3)c1
2. O=C(NCCCCl)c1c(O)c2ccccc2[nH]c1=O

["> 100 µM (inactive)", "> 72.1 µM (inactive)"]
